B1: library; a variant is named by its letters at N, in order (parent)
chain: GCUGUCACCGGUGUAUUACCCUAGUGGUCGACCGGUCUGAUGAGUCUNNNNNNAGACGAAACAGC

- Variants of: B1
- EXPERIMENT DESCRIPTION: normalized RNA/DNA level without ligand (relative to sTRSVctl = 100) (log10 (% of sTRSVctl)); ligand: hypoxanthine (xanthine aptamer); higher = less ribozyme self-cleavage, higher mRNA level
- CONDITIONS USED: HEK293T, reporter: mCherry (pCS4076), ligand present: no
MEASURED QUANTITY: normalized RNA/DNA level without ligand (log10)

CHAIN: GCUGUCACCGGUGUAUUACCCUAGUGGUCGACCGGUCUGAUGAGUCUCCGAGGAGACGAAACAGC [CCGAGG]
ASSAY VALUE: 1.37
//
CHAIN: GCUGUCACCGGUGUAUUACCCUAGUGGUCGACCGGUCUGAUGAGUCUUAAUGGAGACGAAACAGC [UAAUGG]
ASSAY VALUE: 1.53
//
CHAIN: GCUGUCACCGGUGUAUUACCCUAGUGGUCGACCGGUCUGAUGAGUCUCUUUCUAGACGAAACAGC [CUUUCU]
ASSAY VALUE: 1.88
//
CHAIN: GCUGUCACCGGUGUAUUACCCUAGUGGUCGACCGGUCUGAUGAGUCUCGUCGUAGACGAAACAGC [CGUCGU]
ASSAY VALUE: 1.98
//
CHAIN: GCUGUCACCGGUGUAUUACCCUAGUGGUCGACCGGUCUGAUGAGUCUUGUUGGAGACGAAACAGC [UGUUGG]
ASSAY VALUE: 1.53
//
CHAIN: GCUGUCACCGGUGUAUUACCCUAGUGGUCGACCGGUCUGAUGAGUCUCAGCGCAGACGAAACAGC [CAGCGC]
ASSAY VALUE: 1.85
//
CHAIN: GCUGUCACCGGUGUAUUACCCUAGUGGUCGACCGGUCUGAUGAGUCUCUCGGCAGACGAAACAGC [CUCGGC]
ASSAY VALUE: 1.92
